Target: Peroxisome proliferator-activated receptor delta (Homo sapiens)
Sequence (Q03181 whole entry): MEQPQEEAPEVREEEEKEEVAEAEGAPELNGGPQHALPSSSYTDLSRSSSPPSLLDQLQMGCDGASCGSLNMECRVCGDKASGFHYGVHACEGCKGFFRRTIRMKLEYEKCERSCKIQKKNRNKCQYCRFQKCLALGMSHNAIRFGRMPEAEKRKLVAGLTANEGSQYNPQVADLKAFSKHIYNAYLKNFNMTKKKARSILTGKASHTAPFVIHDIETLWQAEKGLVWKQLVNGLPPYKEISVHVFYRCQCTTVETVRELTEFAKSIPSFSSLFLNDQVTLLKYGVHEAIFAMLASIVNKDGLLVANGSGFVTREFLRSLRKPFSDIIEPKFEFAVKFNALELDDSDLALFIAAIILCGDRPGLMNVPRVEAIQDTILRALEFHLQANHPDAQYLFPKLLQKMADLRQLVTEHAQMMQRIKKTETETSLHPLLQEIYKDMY
parameter: log10 of EC50 (log10 of the value in nM)

structure.smiles	numeric.readout
Cc1cc(OCc2nc(-c3cccnc3)c(-c3ccc(-c4ccccc4)cc3)o2)ccc1OCC(=O)O	0.90
Cc1ccc(-c2sc(COc3ccc(OCC(=O)O)c(C)c3)nc2C)cc1	3.80
COc1ccc(-c2nc(COc3ccc(OCC(=O)O)c(C)c3)sc2-c2ccccc2)cc1	2.28
Cc1cc(OCc2nc(-c3ccc(N4CCCCC4)cc3)c(-c3ccc(OC(F)(F)F)cc3)s2)ccc1OCC(=O)O	1.72
O=C(O)Cc1cccc(-c2noc(-c3ccccc3)c2C(=O)NCCOc2cc(Cl)cc(Cl)c2)c1	1.85
COc1ncc(-c2nc(COc3ccc(OCC(=O)O)c(C)c3)sc2-c2ccc(OC(F)(F)F)cc2)cn1	1.53
COc1ccc(-c2nc(COc3ccc(OCC(=O)O)c(C)c3)oc2-c2ccc(-c3ccccc3)cc2)cc1	1.00
CCCCOc1ccc(-c2nc(COc3ccc(OCC(=O)O)c(C)c3)sc2-c2ccc(OC(F)(F)F)cc2)cc1	1.41
COc1ccc(-c2nc(COc3ccc(OCC(=O)O)c(C)c3)sc2-c2cccc(C(F)(F)F)c2)cc1	1.85
Cc1cc(OCc2nc(-c3ccc(N4CCOCC4)cc3)c(-c3ccc(-c4ccccc4)cc3)s2)ccc1OCC(=O)O	1.26
Cc1ccc(-c2sc(COc3ccc(OCC(=O)O)c(C)c3)nc2-c2cccnc2)cc1	2.28
Cc1cc(OCc2nc(-c3ccc(OC4CCCC4)cc3)c(-c3ccc(OC(F)(F)F)cc3)o2)ccc1OCC(=O)O	0.60
COc1ccc(-c2nc(COc3ccc(OCC(=O)O)c(C)c3)sc2-c2ccc(-c3ccccc3)c(C(F)(F)F)c2)cc1	2.40
